# subject_of_test: PRMT5/MEP50 complex (Homo sapiens)
# Construct: purchased Reaction Biology Corporation
# Sequence (O14744 2-637 limits assumed): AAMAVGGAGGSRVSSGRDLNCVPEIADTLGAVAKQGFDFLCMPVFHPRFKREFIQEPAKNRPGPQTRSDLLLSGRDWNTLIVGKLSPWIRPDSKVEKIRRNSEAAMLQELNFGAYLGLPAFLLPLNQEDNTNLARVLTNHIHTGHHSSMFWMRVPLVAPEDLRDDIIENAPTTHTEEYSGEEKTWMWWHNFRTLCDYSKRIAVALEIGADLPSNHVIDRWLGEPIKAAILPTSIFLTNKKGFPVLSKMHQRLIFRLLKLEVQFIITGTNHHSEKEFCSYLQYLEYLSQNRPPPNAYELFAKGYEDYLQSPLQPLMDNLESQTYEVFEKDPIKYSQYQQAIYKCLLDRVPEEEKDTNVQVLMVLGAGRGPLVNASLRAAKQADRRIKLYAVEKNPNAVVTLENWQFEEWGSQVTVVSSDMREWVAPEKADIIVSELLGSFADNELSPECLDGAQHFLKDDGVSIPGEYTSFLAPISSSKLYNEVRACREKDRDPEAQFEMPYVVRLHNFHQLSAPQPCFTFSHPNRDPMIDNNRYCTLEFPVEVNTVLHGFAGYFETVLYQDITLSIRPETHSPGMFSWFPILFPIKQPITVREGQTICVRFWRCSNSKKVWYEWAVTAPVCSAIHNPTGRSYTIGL
# Sequence (Q9BQA1 2-342 partner limits assumed): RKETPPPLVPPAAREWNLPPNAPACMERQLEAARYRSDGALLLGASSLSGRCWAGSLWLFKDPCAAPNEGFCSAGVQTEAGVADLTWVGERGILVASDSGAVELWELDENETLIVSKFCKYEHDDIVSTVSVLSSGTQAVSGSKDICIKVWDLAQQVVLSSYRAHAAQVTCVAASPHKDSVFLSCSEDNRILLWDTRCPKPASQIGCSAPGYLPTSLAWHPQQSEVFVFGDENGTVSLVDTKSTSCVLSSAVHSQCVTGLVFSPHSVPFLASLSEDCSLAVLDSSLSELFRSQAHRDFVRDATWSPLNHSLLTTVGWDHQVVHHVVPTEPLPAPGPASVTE
# assay_overview: PRMT5:MEP50 HotSpot Assay (full-length histone H2A substrate, plus and minus MTA)
# Assay type: biochemical
# assay_conditions: IC50 + 2 μM MTA, in the presence of 2 μM MTA
Catalogue of IC50 values
Kindly answer with a numeric value in nM, unit omitted.

See these solved cases before continuing.
compound: Cn1ncc(-c2ccc3c(=O)[nH]nc(CN)c3c2)c1-c1sc2ccncc2c1C#N [Example 4-274]
subject_of_test: PRMT5/MEP50 complex (Homo sapiens)
quantitative_result: 1070

compound: Cn1ncc(-c2ccc3c(=O)[nH]nc(CN)c3c2)c1-c1c(F)cc(S(F)(F)(F)(F)F)cc1C#N (atropisomer, axis not shown; (M)) [Example 16-134]
subject_of_test: PRMT5/MEP50 complex (Homo sapiens)
quantitative_result: 955

Query block: Please tell me the measured IC50 for Cn1ncc(-c2ccc3c(=O)[nH]nc(CN)c3c2)c1-c1c(F)cc2c(c1C#N)OCCO2 (single isomer, unassigned) [Example 16-89] ; system: PRMT5/MEP50 complex (Homo sapiens).
Result block: 1360

Query block: Consider the compound Cn1ncc(-c2cc(Cl)c3c(=O)[nH]nc(CN)c3c2)c1-c1c(C#N)cc2ccccc2c1Cl (single isomer, unassigned) [Example 16-63] tested on PRMT5/MEP50 complex (Homo sapiens); state its IC50.
Result block: 341

Query block: Write down measured IC50 (PRMT5/MEP50 complex (Homo sapiens)) for this compound. C[C@@H]1C[C@H]1Oc1ccc(F)c(-c2c(-c3ccc4c(=O)[nH]nc(CN)c4c3)cnn2C)c1C#N (atropisomer, axis not shown; (P)) [Example 16-65]
Result block: 204
